These measurements were taken from patent US20210047278A1.

Target: FBW7^ARG (RLFBW7) alone (Homo sapiens, UniProt Q969H0, R505L)
Construct: GST (TEV site and flexible linker) (N, cleaved yes); made in house; host or cells: SF9 insect cells (baculovirus)
Sequence (Q969H0 64-707 R505L): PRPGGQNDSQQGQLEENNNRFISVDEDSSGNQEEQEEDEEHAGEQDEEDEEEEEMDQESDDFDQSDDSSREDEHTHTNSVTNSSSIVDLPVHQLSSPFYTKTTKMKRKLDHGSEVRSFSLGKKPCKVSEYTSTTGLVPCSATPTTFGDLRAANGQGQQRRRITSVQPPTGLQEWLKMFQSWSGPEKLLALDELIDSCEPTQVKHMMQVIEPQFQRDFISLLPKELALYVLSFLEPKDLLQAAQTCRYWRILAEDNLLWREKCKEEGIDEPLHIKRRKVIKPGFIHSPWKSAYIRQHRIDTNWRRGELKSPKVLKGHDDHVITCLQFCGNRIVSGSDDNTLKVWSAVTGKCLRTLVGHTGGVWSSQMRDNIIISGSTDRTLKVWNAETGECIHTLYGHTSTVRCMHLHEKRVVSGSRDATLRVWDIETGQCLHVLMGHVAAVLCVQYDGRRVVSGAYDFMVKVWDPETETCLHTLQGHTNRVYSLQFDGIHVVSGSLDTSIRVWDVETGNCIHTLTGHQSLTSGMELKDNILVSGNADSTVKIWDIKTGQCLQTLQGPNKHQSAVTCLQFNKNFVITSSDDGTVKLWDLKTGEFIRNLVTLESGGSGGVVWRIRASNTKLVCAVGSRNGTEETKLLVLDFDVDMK
Sequence (P63208 2-163 partner): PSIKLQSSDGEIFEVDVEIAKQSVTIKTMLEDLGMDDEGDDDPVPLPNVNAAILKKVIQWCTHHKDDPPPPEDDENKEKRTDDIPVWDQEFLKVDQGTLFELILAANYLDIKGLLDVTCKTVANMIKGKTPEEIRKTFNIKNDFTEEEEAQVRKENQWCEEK
Test: Counterscreen 1 ALPHAscreen with FBW7^ARG alone (CSRUN1/DCSRUN1)
Type: binding
Conditions: dose-response counterscreen, read-out: RLFBW7 ACT DCSRUN1 Averaged Max % Response
OBSERVED_PROPERTY: Emax (%)
Please give a number only; it is taken to be in %.

query: Would you mind telling me what Emax value was observed for O=C(NCc1ccc(C(=O)NCCc2ccccn2)cc1)Nc1ccc(-c2cn[nH]c2)cc1 [SR-00000005517-1] ?
result: 100

query: Would you mind telling me what Emax value was observed for CSc1ccccc1C(=O)Nc1nc2nc(C)cc(C)c2s1 [SR-01000917298-1] ?
result: 83

query: Would you mind telling me what Emax value was observed for CCN(CC)c1ccc2cc(-c3ccccn3)c(=O)oc2c1 [SR-01000033354-1] ?
result: 12

query: Would you mind telling me what Emax value was observed for COc1cc(-c2ccnc(N)n2)ccc1NC(=O)[C@H]1COc2ccccc2O1.O=C(O)C(F)(F)F [SR-00000003239-1] ?
result: 0.69
